IC50, DNA polymerase theta (Homo sapiens), per-entry values.
Give the number; nM is assumed, so skip it.

compound | IC50 / nM
COc1ccc(C(F)(F)F)cc1-c1cn(C)c(=O)cc1C(=O)Nc1nnc(C#CC2CCOC2)s1 (centres undefined) | 12
COc1cnc(Cl)cc1-c1cnccc1C(=O)Nc1ncc(C#CC2CC2)s1 | 1.1
COc1cnc(C(F)F)cc1-c1cc(-c2ccn(C)n2)ncc1C(=O)Nc1nnc(C#Cc2cc(C)[nH]n2)s1 | 2.9

We now examine a further compound.
Req: So what does the record say about IC50 for COc1cnc(Cl)cc1-c1cc(-c2nnc(C)o2)ccc1C(=O)Nc1nnc(C#CC2CC2)s1 ?
Resp: 0.38
